What GI50 was measured for each of the following?
test system: EKVX NSCLC; experiment: NCI tumour cell line growth inhibition, 48 h

Before answering, review these 3 worked examples.
>>> value_reported("OCC1OC(OC2(CO)OC(CO)C(O)C2O)C(O)C(O)C1O (stereo not drawn)")
"> 100 µM"
>>> value_reported("CC(=O)Nc1cccc(C#Cc2cncnc2Nc2ccc(OCc3cccc(F)c3)c(Cl)c2)c1")
"2.01 µM"
>>> value_reported("O=c1[nH]c(=S)[nH]c(O)c1/C=C1\\C=Nc2ccccc21")
"7.14 µM"

Please look at the items below and tell me GI50 for each one, in order.
1. O=C1Nc2ccc(-c3cccnc3)cc2/C1=C/c1cc(Br)c(O)c(Br)c1
2. CCN(CC)CCCC(Nc1c2ccc(Cl)cc2nc2ccc(OC)cc12)c1ccc(Cl)cc1 (stereo not drawn)

**Result**
1: 10.2 µM; 2: 1.35 µM

====

system: OVCAR-3 ovarian; experiment: NCI tumour cell line growth inhibition, 48 h
Provide the reported TGI of each item.

>>> value_reported("COc1ccc2oc(=O)c(-c3cc4c(c(C)n3)c(=O)oc3ccc(OC)cc34)cc2c1")
"> 100 µM"

State recorded TGI for all listed molecules.
1. COc1cc2c(cc1O)NC(=O)[C@@H]1C[C@@H](O)CN1C2=O
2. COc1cc([C@@H]2c3cc4c(cc3[C@H](SC(=N)N)[C@H]3COC(=O)[C@H]23)OCO4)cc(OC)c1OC
3. COC(=O)Nc1cc(OCCCOC(C)=O)c2[nH]c(C(=O)OC)cc2c1C[C@H](O)CO
4. Cc1ccc(NC(=O)CC/C(CC(=O)C(C)(C)C)=N/NC(=O)c2cc3ccccc3cc2O)cc1C

**Result**
1: > 100 µM; 2: 0.35 µM; 3: > 100 µM; 4: > 100 µM

Parameters: items (list). Returns: TGI for each item.
1. Cc1cc(NC(=O)NC(=O)c2ccccc2NC(=O)CN(C)C)ccc1Oc1ncc(Br)cn1
2. C[n+]1cn(CC(=O)c2ccccc2)c(C(N)=O)c1N
3. OCCNc1nc2ccccc2c2[nH]c3ccccc3c12
4. COc1cc2c(c3c1c(=O)c1ccccc1n3C)C=C([N+](=O)[O-])C(C)(C)O2
5. O=C1/C(=C\c2cccc(Oc3ccccc3)c2)SC(c2ccccc2)N1c1cc(Cl)ccc1Cl (stereo not given)

**Result**
1. 13.1 µM
2. > 100 µM
3. 3.47 µM
4. > 100 µM
5. 77.4 µM

====

tested on: LOX IMVI melanoma; assay: NCI tumour cell line growth inhibition, 48 h
property name: TGI

>>> value_reported("O=c1c2[nH]cnc2n(-c2ccccc2)c(=S)n1-c1ccccc1")
"> 100 µM"
>>> value_reported("COCc1cc2c(s1)C(=O)C1=C(C2=O)C2(C=C(Br)C(=O)C(Br)=C2)CCN1")
"7.68 µM"
>>> value_reported("O=C1Nc2ccc(-c3cccnc3)cc2/C1=C/c1cc(Br)c(O)c(Br)c1")
"> 25 µM"
>>> value_reported("COc1ccc(N(CC(=O)O)N=O)cc1")
"> 100 µM"
>>> value_reported("CCOC(=O)c1cn(C)c2c(OC)c3ccccc3c(OC)c2c1=O")
"58.6 µM"

Return reported TGI values for all items listed beneath this line.
1. O=c1c2ccc(Cl)cc2oc2c(CSc3ccccc3)cccc12
2. COC(=O)C1CCC(C)CC1=O (stereo not given)
3. CC(C)(C)C1=NO[C@H]2[C@@H](NC(=O)c3ccccc3)CC[C@@H]12
4. O=C1c2ccccc2-c2c1c1ccccc1c(=O)n2CCCNCCNCCCn1c2c(c3ccccc3c1=O)C(=O)c1ccccc1-2
5. O=C(Nc1ccccc1C(=O)NC(=O)c1ccccc1NC(=O)c1ccccc1)c1ccccc1

**Result**
1: > 91.9 µM; 2: > 100 µM; 3: > 100 µM; 4: 0.355 µM; 5: 13.9 µM

Would you mind giving TGI for every compound in the list below?
1. COc1cc2c(cc1O)C(Cc1ccc(OCc3ccccc3)c(OCc3ccccc3)c1)N(C(=O)NCCc1ccccc1)CC2 (stereo not given)
2. CNC(=O)OCc1nc(SSc2nc(COC(=O)NC)c(COC(=O)NC)n2C)n(C)c1COC(=O)NC
3. CC(C)OC(=O)C(NC(=O)C(CC(=O)OCc1ccccc1)NC(=O)OCc1ccccc1)NC(=O)C1C(C)(C)CCC1(C)C (stereo not given)
4. CC(C)N(C(=O)C12C3C4C1C1C4(C#N)C3C12C(=O)O)C(C)C (stereo not given)
5. CCOC(=O)N1CCNCCN(C(=O)OCC)CCNCC1
6. COC(=O)[C@]12CC[C@@H](C)[C@H](C)[C@@H]1C1=CC[C@@H]3[C@@]4(C)C(C=O)=C[C@@](C)(COS(C)(=O)=O)C4=CC[C@@]3(C)[C@]1(C)CC2

**Result**
["> 100 µM", "> 100 µM", "11.6 µM", "> 100 µM", "> 100 µM", "0.316 µM"]

Items follow; give TGI for each.
1. O=S(Nc1ccccc1)c1ccc(Cl)cc1 (stereo not given)
2. O=[N+]([O-])/C=C/c1ccc2ccccc2c1
3. CCOC(=O)C1C(c2ccc(Br)cc2)N(Cc2ccccc2)C(c2ccc(Br)cc2)C(C(=O)OC)S1(=O)=O (stereo not given)
4. CC1=NC(=N)N=C(C)C1N=Nc1ccc2nc(C)[nH]c2c1 (stereo not given)

**Result**
1. > 100 µM
2. 7.81 µM
3. > 100 µM
4. > 100 µM

====

I'd be grateful if you could share measured GI50 for these entries.
tested on: NCI-H23 lung; assay: NCI tumour cell line growth inhibition, 48 h

>>> value_reported("OCC1OC(OC2(CO)OC(CO)C(O)C2O)C(O)C(O)C1O (centres undefined)")
"> 100 µM"
>>> value_reported("O=C(Nc1ccc(-n2cc(-c3ccncc3)c(-c3ccc(O)c(Cl)c3)n2)cc1)Nc1cc(C(F)(F)F)cc(C(F)(F)F)c1")
"3.63 µM"
>>> value_reported("CN(C)C1C(=O)C(C(N)=O)=C(O)C2(O)C(=O)C3=C(O)c4c(O)cccc4C(C)(O)C3CC12.[Cl][Sb]([Cl])[Cl] (centres undefined)")
"3.3 µM"

Okay, next one:
**Query** Give the reported GI50 for COc1cccc(/C=N/[N-]C(N)=O)c1[O-].[Cu+2].[OH3+] (system: NCI-H23 lung).
**Result** 9.7 µM

====

test system: NCI-H460 lung
Your response should consist of one outcome taken from true (1) for active, false (0) for inactive

// below: answered compounds
>>> class("Nc1c(C(=O)Nc2ccccc2)sc2nc3c(cc12)C(=O)CCC3")
"true (1)"
>>> class("NC(=O)c1nc(-c2c(F)cccc2Cl)oc1Nc1ccc(C(=O)N2CCOCC2)cc1")
"false (0)"
>>> class("C/C(=N\\NC(=S)N1CCC1)c1ccccn1")
"true (1)"
>>> class("CCOC(=O)c1cn(C)c2c(OC)c3ccccc3c(OC)c2c1=O")
"false (0)"
>>> class("Cc1ccc2ccc3c4ccccc4ccc3c2c1")
"false (0)"

**Query** Give the logged outcome of this assay for the following compound: O=C(O)c1ccccc1NCn1nc(-c2ccccc2O)oc1=S
**Result** false (0)

====

system: SN12C renal; test: NCI tumour cell line growth inhibition, 48 h
Would you kindly list TGI for each of these molecules?

>>> value_reported("COc1cccc(-c2cc(=O)c3cc(N4CCN(C)CC4)ccc3[nH]2)c1")
"> 100 µM"
>>> value_reported("CC(=O)Nc1cccc(C#Cc2cncnc2Nc2ccc(OCc3cccc(F)c3)c(Cl)c2)c1")
"> 25 µM"
>>> value_reported("CS(=O)(=O)OCCN1CCN(C(=O)c2ccc(Cl)c3c(Nc4ccc(S(=O)(=O)N=C(N)N)cc4)c4ccccc4nc23)CC1")
"> 100 µM"

I have 2 molecules here; please give me TGI for each one.
1. O=c1[nH]nc(Nc2ccc(Cl)cc2)c2nnn(C3CCCCC3)c12
2. COC(=O)Nc1cc(OCCCOC(C)=O)c2[nH]c(C(=O)OC)cc2c1C[C@H](O)CO

**Result**
["> 100 µM", "> 100 µM"]

====

tested on: SK-MEL-5 melanoma; assay: NCI tumour cell line growth inhibition, 48 h
Consider the following molecules; for each one, report its TGI.

Reference set (2 entries):
>>> value_reported("CNC(=O)OCc1nc(SSc2nc(COC(=O)NC)c(COC(=O)NC)n2C)n(C)c1COC(=O)NC")
"> 100 µM"
>>> value_reported("NC1CCC2(O)c3ccccc3C2C1 (stereo not given)")
"> 100 µM"

Dear colleague, could you send me TGI for each of the items below? Thanks.
1. Cc1ccc(S(=O)(=O)N/N=c2/sc3ccccc3n2C)cc1
2. CN(C)C1C(=O)C(C(N)=O)=C(O)C2(O)C(=O)C3=C(O)c4c(O)cccc4C(C)(O)C3CC12.[Cl][Sb]([Cl])[Cl] (stereo not given)
3. CC(C)CNP(=O)(NCC(C)C)Oc1ccc(CC(NC(=O)OCc2ccccc2)C(=O)OCc2ccccc2)cc1 (stereo not given)
4. CCOC(=O)N1CCNCCN(C(=O)OCC)CCNCC1
5. COC(=O)C1CCC(C)CC1=O (stereo not given)
6. CC(=O)O[C@H]1CC[C@@H](OC(C)=O)[C@H]2[C@H](O)[C@H](O)[C@@H]1n1c(=O)n(-c3ccccc3)c(=O)n12
7. O=c1c2[nH]cnc2n(-c2ccccc2)c(=S)n1-c1ccccc1
8. CC[C@]1(c2ccc3c(c2)OCO3)C=[N+]([O-])O[C@H](OC2CCCC2(c2ccccc2)c2ccccc2)[C@@H]1OC(C)=O (stereo not given in full)

**Result**
1: > 100 µM; 2: 4.36 µM; 3: 45.8 µM; 4: > 100 µM; 5: > 100 µM; 6: > 100 µM; 7: > 100 µM; 8: 3.54 µM

src = PubChem BioAssay (NCI)
